As shown below, each of these compounds has a reported half-life at 0.5 µM value.
experiment: Half life in dog liver microsomes at 0.5 uM at pH 7.4 in presence of NADPH; format: ADME, Canis lupus familiaris, Microsome

Look up half-life at 0.5 µM: CC(=O)N1CC2CC(C1)CN(C(=O)CN1CCC[C@H](NS(=O)(=O)c3ccc4cc(Cl)ccc4c3)C1=O)C2 < 2 min

Could you now look at the following compound, please?
Look up half-life at 0.5 µM: O=C(CN1CCC[C@H](NS(=O)(=O)c2ccc3cc(Cl)ccc3c2)C1=O)N1C[C@@H]2C[C@H](C1)c1cccc(=O)n1C2 < 2 min

Data origin, for the record: ChEMBL document CHEMBL1921791
